tested on: CAKI-1; assay: NCI tumour cell line growth inhibition, 48 h
Calls of active or inactive are those of the source. No stated cut-off is given here; in the data, active = GI50 up to about 1.1 µM and inactive = higher.
Listing of entries alongside the reported GI50.
QUANTITY KIND: GI50

| COMPOUND | VAL |
| --- | --- |
| Cc1cc(N(CCC#N)CCC#N)ccc1/C=C1/CN(N2C(=O)/C(=C/c3ccc(N(CCC#N)CCC#N)cc3C)N=C2c2ccccc2)C(c2ccccc2)=N1 | > 100 µM (inactive) |
| O=C(COc1ccc(Cl)c(Cl)c1)N(Cc1ccccc1)Cc1ccc[n+](Cc2ccc(Cl)cc2S(=O)(=O)F)c1 | > 100 µM (inactive) |
| CC1=C(C(=O)OCCc2ccc([N+](=O)[O-])cc2)C(c2cccc([N+](=O)[O-])c2)C(C(=O)OC(C)C)=C(C)N1 (configuration not stated) | 4.68 µM (inactive) |
| O=c1/c(=C/c2ccccc2O)sc2nc3ccccc3n12 | 34.6 µM (inactive) |
| CCCCCCCCCCCCCCCCC(=O)NCC(=O)NCC(=O)NC(Cc1ccccc1)C(=O)Oc1ccc([N+](=O)[O-])cc1 (configuration not stated) | 17.2 µM (inactive) |
| CSc1c(C#N)c(N)nc2c(/N=N\c3ccc(Br)cc3)c(N)nn12 | 12.6 µM (inactive) |
| N#CCCN(C(=O)Nc1ccccc1)[C@H]1CCCC[C@@H]1N(C(=O)Nc1ccccc1)c1ccccc1 | > 100 µM (inactive) |
| O=C1/C(=C/c2ccccc2)CN(C(=O)CCN2CCOCC2)C/C1=C\c1ccccc1 | 10.1 µM (inactive) |
| CC1=CC(C)C(O)C(C)/C=C\C(O)C/C=C(/C)C(=O)CC(O)C(C)\C=C/C=C\C=C/C(=O)NC2=C(O)C(=O)c3c(cc(C)c(O)c3C1=O)C2=O (configuration not stated) | > 100 µM (inactive) |
| O=Cc1ccc2c(c1)CC1(C2)Cc2ccc3c(c2C1)CCC3 (configuration not stated) | 21.1 µM (inactive) |
| CCOC(=O)/C=C/c1c(C)[nH]c(=O)[nH]c1=O | 191 µM (inactive) |
| CCOC(=O)CNC1=Nc2ccccc2C(=O)N2CSCC12 (configuration not stated) | > 100 µM (inactive) |
| CCCCCCc1cc(C=O)sc1-c1ccc(-c2sc(-c3ccc(-c4ccc(-c5cc(CCCCCC)c(-c6ccc(-c7sc(C=O)cc7CCCCCC)s6)s5)s4)s3)cc2CCCCCC)s1 | > 100 µM (inactive) |
| C/C(=N\NS(=O)(=O)c1ccccc1)c1ccccc1 | > 100 µM (inactive) |
| O=C1OC2c3ccccc3C(=O)C2(c2ccccc2)N1c1ccccc1 (configuration not stated) | 121 µM (inactive) |
| CC1(C)CCCCCCCCCC(C)(CCCCCCCCCCCCO)C1=O (configuration not stated) | 20.7 µM (inactive) |
| COc1cc(O)cc(/C=C/c2ccc(O)cc2)c1 | 33.7 µM (inactive) |
| COC1=CC(=O)N(C)C(O)C1(C#N)OC1OC(CO)C(O)C(O)C1O (configuration not stated) | > 100 µM (inactive) |
| CC(=O)C1=C(C)N2C(=NC3=C(CCc4ccccc43)C2c2ccc(Cl)cc2)S1 (configuration not stated) | > 100 µM (inactive) |
| CCc1n[nH]c(=O)n1N1C(=O)C2CCCCC2C1=O (configuration not stated) | > 100 µM (inactive) |
| COC1(OC)CC2CCCCC2=C(C)N1S(=O)(=O)c1ccccc1 (configuration not stated) | > 100 µM (inactive) |
| CCNc1cnc2c(n1)c(=O)n(C)c(=O)n2C | > 100 µM (inactive) |
| CN1CCN(P2(=S)Oc3ccc4ccccc4c3-c3c(ccc4ccccc34)O2)CC1 | 15.4 µM (inactive) |
| Clc1ccc(/C=C/c2nc(Cl)c(-c3ccc(Cl)cc3)c(Cl)n2)cc1 | 74.8 µM (inactive) |
| O[C@@]12Cc3c([nH]c4ccccc34)[C@@H]3Oc4cccc5c4[C@@]31CCN(CC1CC1)[C@@H]2C5 | 19.2 µM (inactive) |
| C=C(C)C(=O)O[C@H]1CC2=C[C@@H](C[C@@]3(C)O[C@@H]3[C@H]3OC(=O)C(=C)[C@@H]31)OC2=O | 1.86 µM (inactive) |
| Nn1c(CCCCCCCCc2nnc(COc3c(O)ccc4ccccc34)n2N)nnc1COc1c(O)ccc2ccccc12 | 27.2 µM (inactive) |
| CCCCSC1=N/C(=C\c2ccco2)C(=O)N1 | 74.5 µM (inactive) |
| CC(=O)Nc1ccc(C(=O)N2N=C(C)/C(=C\c3c(O)ccc4ccccc34)C2=O)cc1 | > 100 µM (inactive) |
| O=C(O)CCC[C@]1(O)O[C@@]2(CCCC2=O)[C@]2(O)CCC[C@@]21O | 26.5 µM (inactive) |
| COC(=O)c1cc(C(=O)OC)c(CC(=O)C(=O)NC2C3CC4CC(C3)CC2C4)nc1CC(=O)C(=O)NC1C2CC3CC(C2)CC1C3 (configuration not stated) | > 100 µM (inactive) |
| COC(=O)[C@@]12OC[C@]34[C@H]([C@@H](O)[C@@H]1O)[C@@]1(C)CC(=O)C(OC(C)=O)=C(C)[C@@H]1C[C@H]3OC(=O)[C@H](OC(=O)C=C(C)C)[C@@H]24 | 2.7 µM (inactive) |
| N#Cc1c(-c2ccc(Cl)cc2)[nH]c(=O)n(C2OC(CO)C(O)C(O)C2O)c1=O (configuration not stated) | > 100 µM (inactive) |
| COc1cc2c(cc1OC)-c1cc3ccccc3c[n+]1CC2 | > 100 µM (inactive) |
| CCOc1nc(N)nc(C)c1/N=N/c1ccc(Cl)cc1 | > 100 µM (inactive) |
| CN1CCCc2nc3ccccc3n2C1 | > 100 µM (inactive) |
| CCCCCCC(O)CC[C@H]1CCC[C@@H](C)N1 (some centres not stated) | > 100 µM (inactive) |

Where do the numbers come from? From ChEMBL document CHEMBL1201862.
